test system: BV-2; assay: Anti-inflammatory activity against LPS-induced mouse BV-2 cells assessed as inhibition rate of LPS-induced NO production pretreated for 1 hr followed by challenged with LPS and measured after 24 hrs incubation by Griess assay; assay type: functional, cell-based
Please go through the items and note down their IC50.

// query Bench note: what IC50 did CC(C)=CC(=O)NC(C)c1ccc2ccccc2c1 (stereo not given) show?
// result 44.2 µM

// query What about this molecule? CCCc1ccc(CNC(=O)C=C(C)C)cc1
// result 49.4 µM

// query Also check CC(C)=CC(=O)C[C@H](C)c1ccc(C)cc1
// result 25.4 µM

// query Next molecule: CC(C)=CC(=O)OC(C)c1ccc(C)cc1 (stereo not given)
// result 42.5 µM

// query Please do the same for CC(C)=CC(=O)CC(c1ccc(-c2ccccc2)cc1)C(C)C (stereo not given) as well.
// result 26.6 µM

// query // next record CC(C)=CC(=O)NC(C)c1ccc(C)cc1 (stereo not given)
// result 17.3 µM

// query Another: CC(C)=CC(=O)C[C@@H](C)c1ccc(C)cc1
// result 29.1 µM

// query Try the molecule CC(C)=CC(=O)CC(C)c1ccc(C)cc1 (racemic)
// result 30.2 µM

// query Same for CC(C)=CC(=O)CC(c1ccc(C)cc1)C(C)C (stereo not given)
// result 30.9 µM

// query And then CC(C)=CC(=O)NC(c1ccccc1)c1ccc(C)cc1 (stereo not given) , what is it?
// result 30.4 µM
